Assay: in vitro
Conditions: human, hek293t cells
Parameter: viability at 48 h, 25 µM. Scope: all listed entries.

- MOLECULE: "CC1CN(C(=O)C(C#N)=Cc2c(Cl)cccc2Cl)CC(C)O1 (stereo not shown)"
  viability at 48 h, 25 µM / %: 60.2
- MOLECULE: "C=CC(=O)NC(C)c1ccc(Oc2ccccc2)c(F)c1 (stereo not shown)"
  viability at 48 h, 25 µM / %: 68.8
- MOLECULE: "C=CC(=O)NCC1CCCc2nccn21 (stereo not shown)"
  viability at 48 h, 25 µM / %: 76.8
- MOLECULE: "C=CC(=O)Nc1ccc(C(C)Sc2ccccc2)cc1 (stereo not shown)"
  viability at 48 h, 25 µM / %: 69.7
- MOLECULE: "Cc1ccc(C=C(C#N)C(=O)Nc2cccc3ncccc23)cc1"
  viability at 48 h, 25 µM / %: 123
- MOLECULE: "CC(Cl)C(=O)Nc1ccccc1C(N)=O (stereo not shown) [5-G05, 2-(2-chloropropanamido)benzamide]"
  viability at 48 h, 25 µM / %: 101
- MOLECULE: "Cc1coc(C)c1C(=O)CCl"
  viability at 48 h, 25 µM / %: 72.9
- MOLECULE: "CC(=O)Nc1c(C)cc(C)c(C(=O)CCl)c1C"
  viability at 48 h, 25 µM / %: 98.1
- MOLECULE: "C=CC(=O)N1CCC(C(=O)N2CCC(NC(=O)NC)CC2)CC1"
  viability at 48 h, 25 µM / %: 83
- MOLECULE: "C=CC(=O)N(Cc1ccc(Cl)o1)C1CCCC12CCOCC2 (stereo not shown)"
  viability at 48 h, 25 µM / %: 99.7
- MOLECULE: "O=C(CCl)NCC1(c2ccccc2)CCOCC1"
  viability at 48 h, 25 µM / %: 89.3
- MOLECULE: "CCOc1ccc(N2C(=O)C=CC2=O)cc1"
  viability at 48 h, 25 µM / %: 4.27
- MOLECULE: "C=CCNC(=O)C(C#N)=Cc1ccc(-c2ccc(F)cc2)o1"
  viability at 48 h, 25 µM / %: 114
- MOLECULE: "O=C(CCl)NCc1ccc(OC(F)(F)F)cc1"
  viability at 48 h, 25 µM / %: 1.3
- MOLECULE: "O=C(CCl)c1ccc(Oc2ccccc2)cc1"
  viability at 48 h, 25 µM / %: 0.299
- MOLECULE: "C=CC(=O)N1CCC(C(=O)N[C@@H](C)C(=O)NC)(c2ccccc2)CC1"
  viability at 48 h, 25 µM / %: 87
- MOLECULE: "C=CC(=O)Nc1ccc(C(=O)N2CCC3(CC2)OCCCO3)cc1"
  viability at 48 h, 25 µM / %: 49.1
- MOLECULE: "O=C(CCl)NC1CCCS(=O)(=O)c2ccccc21 (stereo not shown)"
  viability at 48 h, 25 µM / %: 5.88
- MOLECULE: "O=C(CCl)NC1CCCOc2c(F)cccc21 (stereo not shown)"
  viability at 48 h, 25 µM / %: 0.886

---

Assay: in vitro
Details: human, hek293t cells

- COMPOUND: "Cn1cc(NC(=O)CCl)c(C(=O)NC2CCC2)n1"
  UNIT_ABBREVIATION: "%"
  viability at 48 h, 25 µM: 2.84
- COMPOUND: "N#CC(=Cc1ccc2c(c1)OCO2)C(=O)NCc1ccccc1"
  UNIT_ABBREVIATION: "%"
  viability at 48 h, 25 µM: 85.6
- COMPOUND: "O=C1C=CC(=O)N1c1cccc([N+](=O)[O-])c1"
  UNIT_ABBREVIATION: "%"
  viability at 48 h, 25 µM: 92.8
- COMPOUND: "C=CC(=O)Nc1ncnc2c1cnn2Cc1cccc(C)c1"
  UNIT_ABBREVIATION: "%"
  viability at 48 h, 25 µM: 100
- COMPOUND: "CCOc1ccc(NC(=O)C(C#N)=Cc2ccc(F)cc2)cc1"
  UNIT_ABBREVIATION: "%"
  viability at 48 h, 25 µM: 102
- COMPOUND: "CCOC(=O)c1c2c(nn1C)CCN(C(=O)C(C)Cl)C2 (stereo not shown)"
  UNIT_ABBREVIATION: "%"
  viability at 48 h, 25 µM: 92.6
- COMPOUND: "Cc1c(Cl)cccc1N1C(=O)C=CC1=O"
  UNIT_ABBREVIATION: "%"
  viability at 48 h, 25 µM: 130
